What AC50 was measured for each of the following?

Challenge: Param readout= AC50; system= Cytochrome P450 3A4 (Homo sapiens, UniProt P08684); entry= O=C(Cn1ccc2ccccc2c1=O)N1CCN(c2cccc(Cl)c2)CC1 ; returns value.
Response given: 3.16 µM (inconclusive)

Challenge: Give Cytochrome P450 3A4 (Homo sapiens, UniProt P08684) AC50 for O=C(c1ccco1)N1CCC[C@@]2(CCN(Cc3ccccc3)C2)C1
Response given: 20 µM (inconclusive)

Challenge: Kindly state the measured AC50 obtained for Cn1c(=O)c(-c2ccc(F)c(F)c2)nc2cncnc21 with Cytochrome P450 3A4 (Homo sapiens, UniProt P08684).
Sequence (P08684 whole entry): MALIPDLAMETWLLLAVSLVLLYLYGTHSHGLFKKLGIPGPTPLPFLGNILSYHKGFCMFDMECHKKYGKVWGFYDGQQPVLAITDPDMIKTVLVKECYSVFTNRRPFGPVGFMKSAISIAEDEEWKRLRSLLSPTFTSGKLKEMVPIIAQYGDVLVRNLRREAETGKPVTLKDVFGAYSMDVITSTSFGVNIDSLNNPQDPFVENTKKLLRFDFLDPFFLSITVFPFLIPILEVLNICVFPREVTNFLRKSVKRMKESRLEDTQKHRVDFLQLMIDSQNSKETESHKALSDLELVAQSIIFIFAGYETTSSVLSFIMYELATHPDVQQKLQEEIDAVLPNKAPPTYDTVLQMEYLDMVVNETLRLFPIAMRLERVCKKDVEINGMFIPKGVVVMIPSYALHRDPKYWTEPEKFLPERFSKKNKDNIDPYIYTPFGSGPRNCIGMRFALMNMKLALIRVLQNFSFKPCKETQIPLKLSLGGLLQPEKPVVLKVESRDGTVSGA
Response given: 20 µM (inconclusive)

Challenge: Provide value of AC50 for this record tested with Cytochrome P450 3A4 (Homo sapiens, UniProt P08684): CCOC(=O)c1c(C)c(C(=O)NCCN2CCOCC2)c(C)n1CC
Response given: 25.1 µM (inconclusive)

Challenge: State its AC50 on Cytochrome P450 3A4 (Homo sapiens, UniProt P08684): C=CCNc1sc(C(=O)c2ccc(C)cc2)c(N)c1C#N
Response given: 31.6 µM (inconclusive)

Challenge: # returns recorded AC50 (system: Cytochrome P450 3A4 (Homo sapiens, UniProt P08684)) for CCOC(=O)c1c(-c2ccccc2)nc2c(C)cccn12
Response given: 14.1 µM (inconclusive)

Challenge: Lab request: please report AC50 under test system Cytochrome P450 3A4 (Homo sapiens, UniProt P08684) for O=S(=O)(NCc1cc(-c2ccccc2)no1)c1ccc(Cl)cc1;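 note: CYP3A4 tested as one member of a cytochrome P450 panel screen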
Response given: 25.1 µM (inconclusive)

Challenge: Lab note: need AC50 for Cc1ccc(CNc2nc(N)c([N+](=O)[O-])c(Nc3ccc(F)cc3)n2)cc1 on Cytochrome P450 3A4 (Homo sapiens, UniProt P08684), anyone have it?
Response given: 2 µM (inconclusive)

Challenge: Give recorded AC50 with Cytochrome P450 3A4 (Homo sapiens, UniProt P08684) for the following compound: c1cc(CCN2CCCCC2)ccn1
Response given: 6.31 µM (inconclusive)

Challenge: What measured AC50 is associated with CC(=O)N1N=C(c2cccc([N+](=O)[O-])c2)OC1c1ccccc1Cl (stereo unspecified) on Cytochrome P450 3A4 (Homo sapiens, UniProt P08684)?
Response given: 39.8 µM (inconclusive)

Challenge: Query for Cytochrome P450 3A4 (Homo sapiens, UniProt P08684): what AC50 does the record show for COc1ccc2c(c[n+](C)c3c4cc5c(cc4ccc23)OCO5)c1OC ?
Response given: 31.6 µM (inconclusive)

====

Biological target: UniProt Q9GZV3
Sequence (Q9GZV3 whole entry): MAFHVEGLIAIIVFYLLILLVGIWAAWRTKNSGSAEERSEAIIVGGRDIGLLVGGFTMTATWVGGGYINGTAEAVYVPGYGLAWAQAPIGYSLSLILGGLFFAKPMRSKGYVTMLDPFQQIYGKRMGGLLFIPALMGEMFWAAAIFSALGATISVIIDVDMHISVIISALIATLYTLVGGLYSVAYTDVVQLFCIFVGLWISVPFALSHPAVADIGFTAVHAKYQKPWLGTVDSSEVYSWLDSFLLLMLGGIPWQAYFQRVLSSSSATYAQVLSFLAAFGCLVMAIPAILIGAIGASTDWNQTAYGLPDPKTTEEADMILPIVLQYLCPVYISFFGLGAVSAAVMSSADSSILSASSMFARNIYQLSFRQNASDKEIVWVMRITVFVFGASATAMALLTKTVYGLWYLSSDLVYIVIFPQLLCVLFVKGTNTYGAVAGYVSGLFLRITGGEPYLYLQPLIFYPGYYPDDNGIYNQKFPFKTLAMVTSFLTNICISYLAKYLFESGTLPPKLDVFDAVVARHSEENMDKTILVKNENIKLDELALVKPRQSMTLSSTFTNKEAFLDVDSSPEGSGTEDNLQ
Assay: human choline transporter blockers, potency – cell-based, 5-point CRC, membrane potential dye, dose response (AID 504840)
Format: functional
Active and inactive are the calls of the source.
assay-readout: IC50

Challenge: Look up IC50 for this compound: Cc1ccc2c(c1)c(CC(=O)Nc1ccc(C)c(F)c1)c(C(=O)O)n2C
Response given: 12.6 µM (active)

Challenge: Would you kindly share the measured IC50 for O=C(O)CC1=C(Nc2ccccc2)C(=O)N(c2ccccc2)C1c1ccc(Br)cc1 (configuration not stated) ?
Response given: 5.55 µM (active)

Challenge: Item under review: Cc1ccc(C(=O)N/C(=C/C=C/c2ccccc2)C(=O)NCc2ccco2)cc1 . Reported IC50?
Response given: 17.4 µM (active)

Challenge: Quick one: IC50 for Cc1ccc(C(=O)NC2CCCCC2)cc1S(=O)(=O)N1CCCC1 ?
Response given: 1.26 µM (active)

Challenge: Which IC50 is reported for this compound? Cc1nnc(SCc2cnc(-c3ccc(C(C)C)cc3)s2)n1C
Response given: 1.28 µM (active)

Challenge: // lookup IC50 for Cc1csc(NC(=O)CSc2nc(C(C)C)nc3ccccc23)n1
Response given: 7.94 µM (active)

Challenge: // returns reported IC50 for input CCCCN=C(S)Nc1ccc([N+](=O)[O-])cc1
Response given: 12 µM (active)

====

Assignment: determine reported IC50 for the given compounds.
Molecular target: UniProtKB P29990
Sequence (P29990 2492-3391 limits assumed): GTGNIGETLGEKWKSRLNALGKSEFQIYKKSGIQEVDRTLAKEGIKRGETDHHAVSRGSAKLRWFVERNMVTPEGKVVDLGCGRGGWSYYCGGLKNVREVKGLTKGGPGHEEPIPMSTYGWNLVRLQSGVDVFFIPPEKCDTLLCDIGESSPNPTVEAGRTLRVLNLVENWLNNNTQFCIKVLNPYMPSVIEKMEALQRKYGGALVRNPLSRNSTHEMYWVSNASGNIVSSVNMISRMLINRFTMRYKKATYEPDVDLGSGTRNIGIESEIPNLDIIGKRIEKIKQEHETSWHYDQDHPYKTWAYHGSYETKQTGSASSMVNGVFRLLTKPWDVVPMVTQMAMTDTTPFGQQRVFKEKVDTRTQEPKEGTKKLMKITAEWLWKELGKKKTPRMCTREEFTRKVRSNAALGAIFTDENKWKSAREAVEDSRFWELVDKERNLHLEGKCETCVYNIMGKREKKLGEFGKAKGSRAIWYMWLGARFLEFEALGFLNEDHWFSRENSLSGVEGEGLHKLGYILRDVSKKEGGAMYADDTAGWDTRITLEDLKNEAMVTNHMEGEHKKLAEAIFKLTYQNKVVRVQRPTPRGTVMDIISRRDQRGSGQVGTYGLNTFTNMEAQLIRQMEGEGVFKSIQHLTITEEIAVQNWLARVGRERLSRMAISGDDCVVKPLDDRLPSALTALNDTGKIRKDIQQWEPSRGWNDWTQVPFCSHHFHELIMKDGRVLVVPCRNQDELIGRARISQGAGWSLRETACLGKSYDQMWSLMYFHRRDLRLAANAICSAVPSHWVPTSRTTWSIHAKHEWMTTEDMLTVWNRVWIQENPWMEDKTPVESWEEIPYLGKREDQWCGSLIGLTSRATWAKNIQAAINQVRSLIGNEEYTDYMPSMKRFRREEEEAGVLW
Test: flavivirus cap methylation enzyme inhibition – biochemical, confirmation dose response, primary screen (AID 588689)
Assay type: functional
Calls of active or inactive are those of the source.

Challenge: For the compound CC(/C=C1\SC(=S)N(C(C(=O)O)c2ccccc2)C1=O)=C\c1ccccc1 (stereo not drawn) , what IC50 is on record?
Response given: 38.5 µM (active)

Challenge: Report IC50 for COc1cc(C(=O)Nc2scc(-c3ccc(Br)cc3)c2C(=O)O)cc(OC)c1OC please.
Response given: 58 µM (active)

Challenge: So what's the measured IC50 for this one? Cc1nn(-c2ccccc2)c(Cl)c1/C=N/Nc1ccc(S(=O)(=O)Nc2ccccc2C(=O)O)cc1[N+](=O)[O-]
Response given: 33.1 µM (active)

Challenge: Entry COC1=C(Br)C(=O)c2ncccc2C1=O has what IC50?
Response given: 3.41 µM (active)

Challenge: Query (compound): COc1ccccc1/C=C1\SC(=S)N(NS(=O)(=O)c2ccc(C)cc2)C1=O ; field requested: IC50
Response given: 34.7 µM (active)

Challenge: Could you share which IC50 value was measured for O=C1CC2CCCN2C=C1I (stereo not drawn) ?
Response given: 62.7 µM (active)

Challenge: Look up IC50 for this compound: O=C(O)CN1C(=O)/C(=C\c2cccc(OCc3ccc(F)cc3)c2)SC1=S
Response given: 42.6 µM (active)

Challenge: Fill blank: measured IC50 of the compound O=C1NC(=O)C(=Cc2ccccc2[N+](=O)[O-])C(=O)N1 is ____.
Response given: 27.3 µM (active)

====

Biological target: Eukaryotic translation initiation factor 4E (Mus musculus)
Sequence (P63073 whole entry): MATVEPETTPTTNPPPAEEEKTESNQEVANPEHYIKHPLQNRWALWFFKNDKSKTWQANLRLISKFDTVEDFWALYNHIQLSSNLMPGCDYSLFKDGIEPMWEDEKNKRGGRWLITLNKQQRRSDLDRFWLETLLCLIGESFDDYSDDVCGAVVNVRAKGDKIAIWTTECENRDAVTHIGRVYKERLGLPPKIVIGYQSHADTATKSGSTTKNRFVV
Experiment: blockers of eIF4G binding by eIF4E – biochemical, TR-FRET, dose response (AID 855);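 note: potency for disrupting eIF4E binding to eIF4GI seen as loss of FRET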
Format: functional
Calls of active or inactive are those of the source.
For each of the molecules below, state its IC50.

Challenge: Observed IC50 on Eukaryotic translation initiation factor 4E (Mus musculus) for O=C(Nc1cccnc1)c1c(O)c2c(n(Cc3ccccc3)c1=O)CCCC2 , please.
Response given: > 64 µM (inactive)

Challenge: Short answer please: IC50, Eukaryotic translation initiation factor 4E (Mus musculus), entry CN1CCN(C2=CC(=O)OC23CCCCC3)CC1
Response given: > 64 µM (inactive)

Challenge: Param readout = IC50; param system = Eukaryotic translation initiation factor 4E (Mus musculus); param query = O=C1c2ccccc2C(O)N1Cc1ccccc1Cl (centres undefined) ; response: value
Response given: > 64 µM (inactive)

Challenge: Hi! What's the reported IC50 for CCOc1ccccc1NC(=O)N1CCC(NC(=O)c2cccc(C)c2)CC1 on Eukaryotic translation initiation factor 4E (Mus musculus)?
Response given: 58 µM (inactive)

====

Target: UniProtKB Q194T2
Sequence (Q194T2 whole entry): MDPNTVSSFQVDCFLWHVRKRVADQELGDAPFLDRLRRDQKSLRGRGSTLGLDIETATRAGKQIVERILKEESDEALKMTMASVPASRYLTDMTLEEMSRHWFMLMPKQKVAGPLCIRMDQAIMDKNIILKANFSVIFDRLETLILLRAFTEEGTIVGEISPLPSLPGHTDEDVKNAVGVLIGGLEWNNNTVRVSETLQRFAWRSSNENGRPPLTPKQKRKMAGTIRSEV
Type: functional, Influenza A virus (A/California/07/2009(H1N1))
Activity calls are given as the source filed them.
assay-readout: IC50

Challenge: Please give the measured IC50 for this molecule: O=C(Nc1nc(-c2ccccn2)cs1)c1ccccc1-n1cnnn1
Response given: 5.44 µM (active)

Challenge: If you can, please state the reported IC50 value of Oc1ccc(CN2CCN(c3ccccc3)CC2)c2cccnc12 .
Response given: 59.1 µM (active)

Challenge: Would you kindly share the measured IC50 for Oc1nccc(N/N=C/c2ccccc2O)n1 ?
Response given: 10.3 µM (active)

Challenge: Quick one: IC50 for O=C1C(NS(=O)(=O)c2ccc(Cl)cc2)=C(N2CCCCC2)C(=O)c2ccccc21 ?
Response given: 11.4 µM (active)

Challenge: What value of IC50 has been reported for the following molecule? CN(C)c1ccc(/C=C2/C[N+](C)(C)C/C(=C/c3ccc(N(C)C)cc3)C2=O)cc1
Response given: 6.59 µM (active)

Challenge: Data request, read-out IC50, for Cc1cc(NC(c2cccnc2)c2ccc3cccnc3c2O)no1 (stereo not drawn)
Response given: 7.09 µM (active)

Challenge: Requested read-out: IC50. Entry: Cc1nn(-c2ccccc2)c(Cl)c1/C=N/Nc1ccc(S(=O)(=O)Nc2ccccc2C(=O)O)cc1[N+](=O)[O-]
Response given: 67.6 µM (active)

Challenge: Record request: IC50 value, item Cc1cc(NC(=O)CSc2nnc(-c3ccco3)o2)no1
Response given: 32.4 µM (active)

====

Molecular target: Caspase-3 (Homo sapiens, UniProt P42574);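 note: Dose-response selectivity test against caspase-3 for candidate inhibitors of sentrin-specific proteases (SENPs)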
Sequence (P42574 whole entry): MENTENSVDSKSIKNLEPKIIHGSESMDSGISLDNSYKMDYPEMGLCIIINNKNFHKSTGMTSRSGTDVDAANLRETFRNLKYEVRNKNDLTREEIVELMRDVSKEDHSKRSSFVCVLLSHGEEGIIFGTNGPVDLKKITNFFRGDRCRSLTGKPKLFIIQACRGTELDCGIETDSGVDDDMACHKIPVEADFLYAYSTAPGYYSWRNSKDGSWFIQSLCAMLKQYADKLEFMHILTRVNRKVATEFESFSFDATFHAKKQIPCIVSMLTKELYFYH
Format: functional
Active and inactive are the calls of the source.
assay-readout: IC50

Challenge: So what's the measured IC50 for this one? Cc1ccc2[nH]c(/C(C#N)=C/c3ccc(O)c(O)c3)nc2c1
Response given: 28.1 µM (active)

Challenge: Could you tell me which IC50 is on file for COc1c(O)ccc(/C=C(\C#N)c2nc3ccccc3[nH]2)c1[N+](=O)[O-] ?
Response given: 31.1 µM (active)

Challenge: Using the record for CCOC(=O)c1ccc(NC(=O)c2cc3ccccc3o2)cc1 , report its IC50.
Response given: 23.7 µM (active)

Challenge: Can you look up the measured IC50 of CN(C)S(=O)(=O)Oc1cccc(C(=O)Nc2ccc(Cl)c(Cl)c2)c1 for me?
Response given: 52.2 µM (active)

Where these numbers come from: ChEMBL document CHEMBL1201862
